In this section, each of the compounds is paired with its reported normalised response.
# Tested on: MCF-10A
# protocol summary: normalised response (% of control), CellTiter-Glo; higher = more viable cells (100 = DMSO, 0 = benzethonium chloride kill control)
# condition details: incubation time: 72 h
Write the answer as a number in %, unit excluded.

Use the examples below as a reference point.
| compound | value units | normalised response |
| --- | --- | --- |
| COc1cccc2cc(-c3nc([C@H]4CC[C@H](C(=O)O)CC4)n4ncnc(N)c34)[nH]c12 [OSI-027] (1 nM) | % | 91.4 |
| Clc1ccc(C(c2ccccc2Cl)C(Cl)Cl)cc1 (stereo not drawn) [Mitotane] (1 nM) | % | 94.9 |
| COc1cccc2cc(-c3nc([C@H]4CC[C@H](C(=O)O)CC4)n4ncnc(N)c34)[nH]c12 [OSI-027] (1000 nM) | % | 87 |
| N#CC[C@H](C1CCCC1)n1cc(-c2ncnc3[nH]ccc23)cn1 [Ruxolitinib] (1 nM) | % | 82 |
| COc1cc(Nc2ncc3c(n2)-c2ccc(Cl)cc2C(c2c(F)cccc2OC)=NC3)ccc1C(=O)O [Alisertib] (1000 nM) | % | 76.3 |

Query :: Requested field: normalised response. Item: OC[C@H]1O[C@@H](n2cnc3c2N=CNC[C@H]3O)C[C@@H]1O [Pentostatin] (10 nM)
Result :: 99.9

Query :: Another compound to check: Clc1ccc(C(c2ccccc2Cl)C(Cl)Cl)cc1 (stereo not drawn) [Mitotane] (1000 nM)
Result :: 91.7

Query :: Please do the same for CN1CCC(COc2cnc(-c3cccc(Cn4nc(-c5cccc(C#N)c5)ccc4=O)c3)nc2)CC1 (1 nM) as well.
Result :: 93.9

###

Examples of compounds with documented normalised response follow.
# System: MDA-MB-231
# protocol summary: normalised response (% of control), CellTox Green; higher = less cell death (100 = DMSO, 0 = benzethonium chloride kill control)
# condition details: incubation time: 72 h
Quick note: unit goes after the number.

| compound | normalised response |
| --- | --- |
| CCN1CCN(c2ccc(Nc3cc(N(C)C(=O)Nc4c(Cl)c(OC)cc(OC)c4Cl)ncn3)cc2)CC1 [NVP-BGJ398] (100 nM) | 104% |

Query :: Quick check: normalised response of OC[C@H]1O[C@@H](n2cnc3c2N=CNC[C@H]3O)C[C@@H]1O [Pentostatin] (10000 nM) ?
Result :: 118%

Query :: # repeat for COc1cccc2c1C(=O)c1c(O)c3c(c(O)c1C2=O)C[C@@](O)(C(=O)CO)C[C@@H]3O[C@H]1C[C@H](N)[C@H](O)[C@H](C)O1 [Doxorubicin] (1000 nM)
Result :: 160%

Query :: Next record, please: Nc1ccn([C@@H]2O[C@H](CO)[C@@H](O)[C@@H]2O)c(=O)n1 [Cytarabine] (10000 nM)
Result :: 113%

Query :: Query C[C@]1(c2nc3c(C(N)=O)cccc3[nH]2)CCCN1 [Veliparib] (100 nM) next
Result :: 95.9%

Query :: And CO[C@H]1C[C@@H]2CC[C@@H](C)[C@@](O)(O2)C(=O)C(=O)N2CCCC[C@H]2C(=O)O[C@H]([C@H](C)C[C@@H]2CC[C@@H](OC(=O)C(C)(CO)CO)[C@H](OC)C2)CC(=O)[C@H](C)/C=C(\C)[C@@H](O)[C@@H](OC)C(=O)[C@H](C)C[C@H](C)/C=C/C=C/C=C/1C [Temsirolimus] (1 nM) ?
Result :: 94.2%

Query :: Would you mind doing O=C(c1ccc(C(=O)N2CCC(N3CCCC3)CC2)c(Nc2ccccc2)c1)N1CCC(N2CCCC2)CC1 [UNC1215] (3000 nM) as well?
Result :: 98%

Query :: Then what about the compound OC[C@H]1O[C@@H](n2cnc3c2N=CNC[C@H]3O)C[C@@H]1O [Pentostatin] (1000 nM) ?
Result :: 116%

Query :: One more compound: O=C(c1ccc(C(=O)N2CCC(N3CCCC3)CC2)c(Nc2ccccc2)c1)N1CCC(N2CCCC2)CC1 [UNC1215] (300 nM)
Result :: 90.9%

Query :: Also N#CC[C@H](C1CCCC1)n1cc(-c2ncnc3[nH]ccc23)cn1 [Ruxolitinib] (10000 nM) ?
Result :: 93.4%

All figures here come from the supplement of paper PMC4862054.
